Test system: Plasmodium falciparum
PROTOCOL_TEXT: GSK_TCMDC: Inhibition of Plasmodium falciparum Dd2 in whole red blood cells, using parasite LDH activity as an index of growth. Test compounds present at 2uM
Assay type: functional
MEASURED_ATTRIBUTE: Inhibition (%)
Give bare numbers, in %.

These solved cases illustrate the format of a correct answer.
// query Inhibition value for entry "CCCc1cc(Cc2cnc(N)nc2N)cc(CCC)c1O.Cl"
5

// query Inhibition value for entry "CC(C)Cn1c(N)cc(=O)n(C)c1=O"
0

// query Inhibition value for entry "O=C(O)C(F)(F)F.Oc1ccc(CN2CCC(NCc3cccc(C(F)(F)F)c3)CC2)cc1"
64

// query Inhibition value for entry "CN(C)CCCn1cncc1-c1ccc2ncnc(Nc3ccc4c(cnn4Cc4ccccc4)c3)c2c1"
77

// query Inhibition value for entry "CN1CCC(NCc2ccc(-c3cccc(S(=O)(=O)NCc4ccccc4)c3)cc2)CC1.O=C(O)C(F)(F)F"
94

// query Inhibition value for entry "Cc1cnc(Nc2cccnc2)nc1Nc1ccccc1C(=O)NC(C)C"
26

Return reported Inhibition values for all items listed beneath this line.
1. COc1ccc(Nc2c3ccc(Cl)cc3nc3ccc(OC)cc23)cc1.Cl
2. O=C(Nc1ccc(-c2cccc(-c3nc4cc(C(F)(F)F)ccc4[nH]3)c2)cc1)Nc1ccc(Cl)c(Cl)c1
3. O=C(/C=C/c1ccc(Cl)c(Cl)c1)NCCCCCN1CCCC(CNC(=O)Nc2ccc(Oc3ccccc3)cc2)C1 (stereo unspecified)
4. CC(C)(C)c1ccc2[nH]c(-c3ccc(C(=O)NCc4cccc(C(F)(F)F)c4)cc3)nc2c1
5. CCOc1ccc2c(c1)OC(c1ccccc1)(C(F)(F)F)NC2=O (stereo unspecified)

1. 99
2. 23
3. 6
4. 26
5. 98

---

Tested on: Plasmodium falciparum
PROTOCOL_TEXT: GSK_TCMDC: Inhibition of Plasmodium falciparum 3D7 in whole red blood cells, using parasite LDH activity as an index of growth. Test compounds present at 2uM
Type: functional
Kindly state Inhibition for each of the entries shown.
One number for each entry, in %.

These solved cases illustrate the format of a correct answer.
// query Inhibition value for entry "CN(C)CCOc1ccc(-c2cc(-c3ccncc3)c(-c3ccc(Cl)c(O)c3)o2)cc1.Cl"
99

// query Inhibition value for entry CCCCCOc1ccc(C(O)C(CN2CCCCC2)c2ccccc2)cc1.Cl (stereo not drawn)
98

// query Inhibition value for entry O=C(Nc1cc(Cl)cc(Cl)c1)N[C@H]1CCN(CCCCCNC(=O)C2CC2c2ccc(Cl)c(Cl)c2)C1 (stereo partly drawn)
99

// query Inhibition value for entry "COc1ccc(CNC(=O)Nc2cccc(-c3csc(NC(=N)N)n3)c2)cc1"
80

// query Inhibition value for entry CC(C)(C)COC(=O)c1ccc(NC(=O)N[C@@H](Cc2ccc(O)cc2)C(=O)NC2CCN(Cc3ccc(O)cc3)C2)cc1.O=C(O)C(F)(F)F (stereo partly drawn)
94

Return reported Inhibition values for all items listed beneath this line.
1. COc1ccc(NC(=O)[C@H](Cc2ccccc2)Nc2nc(NCCN3CCCC3)ncc2C)cc1.O=C(O)C(F)(F)F
2. O=C(c1ccccc1)N1CCC(CN2CCOC(c3ccccc3)(c3ccccc3)C2)CC1
3. CCN(CC)c1nc(N)c2c(N)nc3c(c2c1C#N)C(=O)CN3Cc1ccccc1
4. CCOCn1c(-c2ccccc2)cc2c3c(N)nc(N)nc3ccc21
5. O=C(N[C@H]1CCN(CCc2ccc(O[C@H]3CCNC3)cc2)C1)c1ccc(Cl)c(Cl)c1.O=C(O)C(F)(F)F

[89, 94, 96, 91, 96]

Return reported Inhibition values for all items listed beneath this line.
1. COc1ccc2ncc(F)c(CCN3CC(O)C(CNCc4ccc5ccccc5c4)C3)c2n1.Cl (stereo not drawn)
2. Cl.O=c1cc(NCCCNCc2sc(Br)c(Br)c2Br)[nH]c2ccccc12
3. CCN(CC)CCNc1ccnc2[nH]c3ccc([N+](=O)[O-])cc3c12
4. Fc1ccc2c(NN=CC=Cc3ccccc3)ccnc2c1

[100, 90, 100, 100]

Return reported Inhibition values for all items listed beneath this line.
1. Cl.Cn1ccnc1S(=O)(=O)CCNCc1ccc(-c2ccc3ncnc(Nc4ccc(OCc5cccc(F)c5)c(Cl)c4)c3c2)o1
2. Cl.O=C(O)CNCC(O)c1ccccc1 (stereo not drawn)
3. COc1ccc(-c2nc(NC(=O)CS(=O)(=O)c3ccc(C)cc3)sc2C)cc1
4. N#Cc1ccc(CN2CCC(Oc3ccc(NC(=O)c4cccs4)cc3Cl)C2)cc1.O=C(O)C(F)(F)F (stereo not drawn)
5. CC1(C)N=C(N)N=C(N)N1c1ccc(Oc2ccc(Cl)cc2)c(Cl)c1
6. Cc1cc2[nH]c(-c3ccc(C(=O)NCCCN4CCN(c5cccc(Cl)c5)CC4)cc3F)nc2cc1Cl

1. 100
2. 96
3. 100
4. 96
5. 97
6. 99
